Recorded measurements of cAMP Primary assay EC50, n1, one per entry
# Target of assay: glucagon receptor (GCGR), primary cAMP assay cell line (human, UniProt P47871 26-477)
# Sequence (P47871 26-477): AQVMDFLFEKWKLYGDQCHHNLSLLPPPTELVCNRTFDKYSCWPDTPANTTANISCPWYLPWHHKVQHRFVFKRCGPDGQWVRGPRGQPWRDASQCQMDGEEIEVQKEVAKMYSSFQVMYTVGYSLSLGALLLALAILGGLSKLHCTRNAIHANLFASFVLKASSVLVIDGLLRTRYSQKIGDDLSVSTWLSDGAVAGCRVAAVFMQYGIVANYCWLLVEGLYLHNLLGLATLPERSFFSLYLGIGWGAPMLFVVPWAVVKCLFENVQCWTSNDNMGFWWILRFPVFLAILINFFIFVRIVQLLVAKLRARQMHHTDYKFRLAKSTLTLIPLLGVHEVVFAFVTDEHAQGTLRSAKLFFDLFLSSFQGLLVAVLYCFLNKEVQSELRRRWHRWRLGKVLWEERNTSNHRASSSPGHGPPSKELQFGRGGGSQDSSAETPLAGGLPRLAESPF
# Protocol: cell-based or functional assay
Starred links: 1 amine or outer side, 2 acyl side, 3 side chain; linkers in the order of their positions; H or OH if unused. Non-standard residues stand in square brackets, D forms with d. Groups on a side chain read outwards from the residue. Primed or numbered codes have the meaning given here. No end group written: not given here. *: point of attachment. γGlu = O=C(O)[C@H](CCC(=O)[*:2])N[*:1]; αMeF = C[C@](N)(Cc1ccccc1)C(=O)O; αMeK = C[C@](N)(CCCCN)C(=O)O; Lauroyl = CCCCCCCCCCCC(=O)*; αMeS = C[C@](N)(CO)C(=O)O; PEG2′ = not defined here; Aib = CC(C)(N)C(=O)O
Write it as a number; the unit nM goes unstated.

Requested field: cAMP Primary assay EC50, n1. Item: H[Aib]EGS[αMeF]TSDV[αMeS]SK([PEG2′-PEG2′-γGlu-Lauroyl])LEGEK([PEG2′-PEG2′-γGlu-Lauroyl])A[αMeK]EFIK([PEG2′-PEG2′-γGlu-Lauroyl])FVVEGG-NH2 [SEQ ID NO: 449]
19.7

Requested field: cAMP Primary assay EC50, n1. Item: H[Aib]EGS[αMeF]TSDV[αMeS]SK([PEG2′-PEG2′-γGlu-Lauroyl])LEGEK([PEG2′-PEG2′-γGlu-Lauroyl])A[αMeK]EFIAFK([PEG2′-PEG2′-γGlu-Lauroyl])VEGG-NH2 [SEQ ID NO: 481]
19.8

Requested field: cAMP Primary assay EC50, n1. Item: H[Aib]EGS[αMeF]TSDK([PEG2′-PEG2′-γGlu-Lauroyl])SSYLEGK([PEG2′-PEG2′-γGlu-Lauroyl])AA[αMeK]EFIK([PEG2′-PEG2′-γGlu-Lauroyl])FVVEGG-NH2 [SEQ ID NO: 440]
19.7

Requested field: cAMP Primary assay EC50, n1. Item: H[Aib]EGS[αMeF]TSDK([PEG2′-PEG2′-γGlu-Lauroyl])SSYLEGEK([PEG2′-PEG2′-γGlu-Lauroyl])A[αMeK]EFIAK([PEG2′-PEG2′-γGlu-Lauroyl])VVEGG-NH2 [SEQ ID NO: 457]
19.8
